- System: NCI-H3122
- ASSAY PROCEDURE: relative viability (nuclei count vs DMSO), 5 days (fraction); higher = more cells survive
- SETTINGS: first compound 1.265 µM
Documented relative viability across a set of compounds
Please reply with the value in numeric form only.

O=C(O)c1ccc(-c2c[nH]c3ncc(-c4ccccc4)cc23)cc1C1CCCC1 + O=C(c1cc(Cc2n[nH]c(=O)c3ccccc23)ccc1F)N1CCN(C(=O)C2CC2)CC1 [Olaparib] (partner 8 µM)    0.617
O=C(O)c1ccc(-c2c[nH]c3ncc(-c4ccccc4)cc23)cc1C1CCCC1 + CCNC(=O)c1noc(-c2cc(C(C)C)c(O)cc2O)c1-c1ccc(CN2CCOCC2)cc1 [Luminespib] (partner 0.01 µM)    0.0888
O=C(O)c1ccc(-c2c[nH]c3ncc(-c4ccccc4)cc23)cc1C1CCCC1 + Nc1ncn([C@H]2C[C@H](O)[C@@H](CO)O2)c(=O)n1 [Decitabine] (partner 2 µM)    0.428
O=C(O)c1ccc(-c2c[nH]c3ncc(-c4ccccc4)cc23)cc1C1CCCC1 + COc1cc2c(Oc3ccc(NC(=O)C4(C(=O)Nc5ccc(F)cc5)CC4)cc3F)ccnc2cc1OCCCN1CCOCC1 [Foretinib] (partner 0.25 µM)    0.87
O=C(O)c1ccc(-c2c[nH]c3ncc(-c4ccccc4)cc23)cc1C1CCCC1 + COc1cccc2cc(-c3nc([C@H]4CC[C@H](C(=O)O)CC4)n4ncnc(N)c34)[nH]c12 [OSI-027] (partner 0.5 µM)    0.717

Req: May I ask what relative viability has been recorded for O=C(O)c1ccc(-c2c[nH]c3ncc(-c4ccccc4)cc23)cc1C1CCCC1 + C[C@]1(O)C[C@@H](c2nc(-c3ccc4ccc(-c5ccccc5)nc4c3)c3c(N)nccn32)C1 [Linsitinib] (partner 1 µM) ?
Resp: 0.838

Req: May I ask what relative viability has been recorded for O=C(O)c1ccc(-c2c[nH]c3ncc(-c4ccccc4)cc23)cc1C1CCCC1 + Cc1cc(Nc2cc(N3CCN(C)CC3)nc(Sc3ccc(NC(=O)C4CC4)cc3)n2)n[nH]1 [Tozasertib] (partner 0.1 µM) ?
Resp: 0.326

Reference source: the supplement of paper PMC10307832
